assay: Example 5: 4-CNAB plasma pharmacokinetics, single oral doses, healthy male volunteers; format: in vivo, human; conditions: male, human, plasma; 4-CNAB alone 800 mg oral; read-out: 4-CNAB MRT(0-t)
endpoint: MRT last (h)

mol smiles | units text | reported result
O=C(O)CCCNC(=O)c1ccc(Cl)cc1O | h | 1.75

====

assay: Example 5: 4-CNAB plasma pharmacokinetics, single oral doses, healthy male volunteers; format: in vivo, human; conditions: male, human, plasma, po, with insulin, 150 Units/200 mg oral; read-out: 4-CNAB Vz/F
endpoint: Vd/F

mol smiles | endpoint | reported result
O=C(O)CCCNC(=O)c1ccc(Cl)cc1O | Vd/F | 89 L

====

experiment: Example 5: 4-CNAB plasma pharmacokinetics, single oral doses, healthy male volunteers; assay type: in vivo, human; details: male, human, plasma, po, with insulin, 100 Units/450 mg oral; read-out: 4-CNAB t1/2 (converted)
endpoint: half-life (h)

mol smiles | endpoint | units text | reported result
O=C(O)CCCNC(=O)c1ccc(Cl)cc1O | half-life | h | 4.1

====

experiment: Example 5: 4-CNAB plasma pharmacokinetics, single oral doses, healthy male volunteers; assay type: in vivo, human; conditions: male, human, plasma; 4-CNAB alone 400 mg oral; read-out: 4-CNAB MRT(0-t)

mol smiles | units text | MRT last
O=C(O)CCCNC(=O)c1ccc(Cl)cc1O | h | 1.6

====

test: Example 5: 4-CNAB plasma pharmacokinetics, single oral doses, healthy male volunteers; assay type: in vivo, human; conditions: male, human, plasma, po, with insulin, 100 Units/300 mg oral

molecule | units text | Cmax
O=C(O)CCCNC(=O)c1ccc(Cl)cc1O [4-CNAB] | ng/mL | 8900

====

test: Example 8: food effect on 4-CNAB pharmacokinetics, type 1 diabetes patients; assay type: in vivo, human; settings: human, plasma, po, 400 mg, 400 mg 4-CNAB/300 IU insulin oral; Fasting; read-out: Plasma 4-CNAB AUC0-inf

mol smiles | AUC(0-inf) / ng·h/mL
O=C(O)CCCNC(=O)c1ccc(Cl)cc1O | 20700

====

test: Example 5: 4-CNAB plasma pharmacokinetics, single oral doses, healthy male volunteers; format: in vivo, human; conditions: male, human, plasma, po, with insulin, 100 Units/600 mg oral; read-out: 4-CNAB MRT(0-f)
endpoint: MRT (h)

mol smiles | reported result
O=C(O)CCCNC(=O)c1ccc(Cl)cc1O | 1.45

====

assay: Example 8: food effect on 4-CNAB pharmacokinetics, type 1 diabetes patients; format: in vivo, human; settings: human, plasma, po, 400 mg, 400 mg 4-CNAB/300 IU insulin oral; Breakfast 20 min post-dose; read-out: Plasma 4-CNAB tmax, Median (min-max)

molecule | Tmax (min)
O=C(O)CCCNC(=O)c1ccc(Cl)cc1O [4-CNAB] | 25.2

====

test: Example 5: 4-CNAB plasma pharmacokinetics, single oral doses, healthy male volunteers; assay type: in vivo, human; settings: male, human, plasma, po, with insulin, 150 Units/200 mg oral; read-out: 4-CNAB MRT(0-f)

molecule | MRT (h)
O=C(O)CCCNC(=O)c1ccc(Cl)cc1O [4-CNAB] | 1.59

====

Test: Example 8: food effect on 4-CNAB pharmacokinetics, type 1 diabetes patients
Assay type: in vivo, human
Details: human, plasma, oral, period 0-30 minutes post-dose; Breakfast 30 min post-dose; read-out: Plasma 4-CNAB tmax
Protocol: A single-center, open label, randomized, single dose, 3-way cross-over study was conducted in type 1 diabetes mellitus patients to investigate the effect of food on the absorption and pharmacokinetics of insulin after a single dose of oral 4-CNAB/insulin, and to determine the effect of food on the pharmacodynamics of glucose and C-peptide after a single oral dose of 4-CNAB/insulin. […]

mol smiles | Tmax (min)
O=C(O)CCCNC(=O)c1ccc(Cl)cc1O | 28.8
